The values you see were collected from the supplement of paper PMC8728848.

# target: Fuc(a1-3)GlcNAc
# experimental_protocol: glycan array binding signal (z-score within array); higher = stronger binding
# condition_parameters: glycan notation: IUPAC condensed, linker removed
This excerpt belongs to a sample that is enriched for the strongest signals.
measurement_type: glycan array binding signal (z-score)

>>> test_value("HA-00510 (Pseudomonas aeruginosa), Q02V39_PSEAB (protein) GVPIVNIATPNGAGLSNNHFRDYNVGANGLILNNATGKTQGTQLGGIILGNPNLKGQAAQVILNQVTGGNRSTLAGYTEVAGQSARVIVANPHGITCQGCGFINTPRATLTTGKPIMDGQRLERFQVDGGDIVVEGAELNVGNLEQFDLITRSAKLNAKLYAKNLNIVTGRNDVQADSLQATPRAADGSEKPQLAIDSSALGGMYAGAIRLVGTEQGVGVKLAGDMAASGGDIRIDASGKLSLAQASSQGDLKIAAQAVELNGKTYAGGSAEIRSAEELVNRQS")
0.219
